EXPERIMENTAL TARGET: PIM1 transgenic cells (Ba/F3) (Homo sapiens, UniProt P11309)
Sequence (P11309 whole entry, change not shown): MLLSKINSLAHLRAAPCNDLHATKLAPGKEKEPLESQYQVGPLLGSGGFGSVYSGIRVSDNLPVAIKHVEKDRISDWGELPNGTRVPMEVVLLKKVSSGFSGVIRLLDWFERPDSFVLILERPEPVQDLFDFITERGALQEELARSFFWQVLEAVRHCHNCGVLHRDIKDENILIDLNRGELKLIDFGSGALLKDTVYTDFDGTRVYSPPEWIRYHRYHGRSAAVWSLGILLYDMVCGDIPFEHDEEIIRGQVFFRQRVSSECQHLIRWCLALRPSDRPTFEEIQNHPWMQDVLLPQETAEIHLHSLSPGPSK
TEST: Proliferation inhibitory effect on PIM1 transgenic cells
Assay type: cell-based, mouse
CONDITION DETAILS: proliferation inhibition, 72 hours, Cell Counting Kit-8, read-out: PIM1 IC50
Counter-ions that a name gives are not always drawn.
Measured GI50, listed per entry for reference.
Write down the numeric answer in nM and omit the unit.

Requested field: GI50. Item: C[C@H](Nc1cc(-c2n[nH]c(=O)o2)cc(Br)c1Cl)[C@H]1CC[C@H](N)CC1 [Example 171, dihydrochloride]
28

State the recorded GI50 for this entry: "C[C@@H]1CNCC[C@@H]1[C@H](C)Nc1cc(-c2n[nH]c(=O)o2)ccc1OC(F)F"
110
